tested on: HCT-15 colon; experiment: NCI-60 one-dose screen, 48 h; conditions: 10 µM unless noted
The panel holds about 83,000 compounds, 20% with a hit somewhere; the sample as a whole holds those more often. Active and inactive are the calls of the source. How the source made its calls: active means growth percent below 10; inactive means the rest.
Hi! Could you answer with just one of these? Yes = active, No = inactive

Qu. How did this test come out for CC(C)c1ccc(-n2c(=S)[nH]c3sc4c(c3c2=O)CCC(=O)C4)cc1 ?
Ans. No

Qu. Which outcome was entered for the molecule COc1ccc(C/C(C)=C(/c2ccc(OCCN3CCCCCC3)cc2)c2ccc(OC(=O)NCc3ccccc3)cc2)cc1 in this test?
Ans. No

Qu. Identify the outcome logged in this assay for the molecule shown: C=C(C)[C@@H]1CC[C@]2(CO)CC[C@]3(C)[C@H](CC[C@@H]4[C@@]5(C)CCC(NCCc6ccc(O)cc6)C(C)(C)[C@@H]5CC[C@]43C)[C@@H]12 (stereo not given in full)
Ans. Yes

Qu. What was the test verdict on COc1cc(C2C3=C(COC3=O)N(CCO)c3cc4c(cc32)OCCO4)cc(OC)c1OC (stereo not given) ?
Ans. Yes

Qu. Hey, what did the test say about CCOC(=O)c1c2c(n3c1NCC3)-c1ccccc1C2=O ?
Ans. No

Qu. Give the logged outcome of this assay for the following molecule: C=CC(=O)N1CCN(c2ccc3cccc(NC(=O)c4cnc(C)cn4)c3n2)CC1
Ans. No

Qu. Recorded test outcome, item COc1cc2nc(Nc3cccc(F)c3)nc(Nc3cc(C)[nH]n3)c2cc1OC
Ans. Yes

Qu. Look up the recorded call for CN(C)c1ccc(/C=C/C(=O)c2ccccc2)cc1 in this test.
Ans. No

Qu. How did this test come out for Cn1cc(-c2nc(-c3c[nH]c4ccncc34)cs2)c2cc(Br)ccc21 ?
Ans. Yes

Qu. Give the logged outcome of this assay for the following molecule: Nc1c(C(=O)O)cc(Cl)cc1[N+](=O)[O-]
Ans. No

Qu. Given C=C1C(=O)O[C@H]2[C@H]1CC/C(CNC(=O)c1cc3ccccc3[nH]1)=C\CC[C@@]1(C)O[C@@H]21 , state the outcome it received in this test.
Ans. Yes

Qu. Recorded call for O=C(CN1C(=O)NC2NC(=O)NC21)N/N=C/c1ccc(Cl)cc1Cl (stereo not given) ?
Ans. No

Qu. For this molecule, state the assay outcome: CCCCCCCCCCCCCCCCCCOc1ccccc1CC(=O)OCC[N+]1(C)CCOCC1
Ans. No

Qu. For this molecule, state the assay outcome: O=c1oc2c(cnc3ccccc32)cc1-c1cccs1
Ans. No

Qu. Look up the recorded call for Cn1cc(-c2csc(-c3cn(C)c4ccc(Br)cc34)n2)c2cnccc21 in this test.
Ans. Yes

Qu. Record request — test call for Cn1c(/C=C/[N+](=O)[O-])cc2ccccc21
Ans. Yes

Qu. Name the outcome recorded for CC1(C)CCC(S(=O)(=O)c2ccc3c(c2)/C(=N\O)c2cc(S(=O)(=O)N4CCN(c5ccc(F)cc5O)CC4)ccc2-3)CC1 in the assay.
Ans. Yes

Qu. For COc1cccc(OC)c1Oc1c(-c2nc3ccccc3s2)c(C)nn1-c1ccccc1 , which call appears in the assay record?
Ans. No

Qu. Assay outcome for COc1ccc(Cl)cc1Nc1nc(C(F)(F)F)ccc1C(=O)N/N=C/c1ccccc1Cl : what was it?
Ans. Yes

Qu. Returns: the outcome recorded for O=C1N[C@@H]2[C@@H](O)[C@@H](O)[C@H](O)C[C@H]2c2cc3c(c(O)c21)OCCO3 in this assay.
Ans. Yes
